Biological target: T1, HLA DQA1*0101:DQB1*0501
T1 chain 1: not shown
T1 chain 2: not shown
Test: REVEAL class II binding assay (cell-free)
Recorded endpoint: Stability index

Binder | Recorded measurement
IDPFKLLQNSQVVSL (modifications not checked) [Peptide #8 (Common CP sequence)] | 0
LILYDKEEMRRIWRQ (modifications not checked) [Peptide #4 (X181 NP fragment)] | 0.1
VGKMIGGIGRFYIQM (modifications not checked) [Peptide #5 (Common CP sequence)] | 6.4
ALSRGFGSGIITSNA (modifications not checked) [Peptide #18 (Hemagglutinin fragment)] | 0
SGAAGAAVKGVGTMV (modifications not checked) [Peptide #6 (Common CP sequence)] | 0
EKATNPIVPSFDMSN (modifications not checked) [Peptide #7 (Common CP sequence)] | 0
AMERNAGSGIIISDT (modifications not checked) [Peptide #16 (Hemagglutinin fragment)] | 0.1
LTVAAWSVKTSPLNM (modifications not checked) [Peptide #13 (Reverse of #10)] | 0.4
ALNRGSGSGIITSDA (modifications not checked) [Peptide #17 (Hemagglutinin fragment)] | 0
